Biological target: T1, Secreted Protein, Acidic, Rich in Cysteines (SPARC) (UniProt P09486 18-303)
T1 construct: also called osteonectin; SPARC protein
T1 sequence (looked up): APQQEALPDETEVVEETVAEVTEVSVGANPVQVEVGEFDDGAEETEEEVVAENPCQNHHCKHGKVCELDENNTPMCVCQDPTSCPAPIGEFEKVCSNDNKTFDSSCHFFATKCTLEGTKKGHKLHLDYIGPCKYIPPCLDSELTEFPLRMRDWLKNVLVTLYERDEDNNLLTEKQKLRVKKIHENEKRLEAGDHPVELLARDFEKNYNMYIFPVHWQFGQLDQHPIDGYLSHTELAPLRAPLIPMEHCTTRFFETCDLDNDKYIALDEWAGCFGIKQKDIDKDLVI
Assay: concentration-dependent binding ELISA
pKd: −log10 of the molar value.
# pKd values compiled below

| BINDER | pKd |
| --- | --- |
| VTPLLKFRALSS (12-mer from the Ph.D.-12 phage library; The peptide was cloned into pFUSE-hIgG1-Fc2 and expressed as the PD 21-Fc fusion; also called peptide 21; PD 21-Fc) [PD 21] | 7.00 |
| YTRLHHWIPPQR (12-mer from the Ph.D.-12 phage library; The peptide was cloned into pFUSE-hIgG1-Fc2 and expressed as the PD 15-Fc fusion; also called peptide 15; PD 15-Fc) [PD 15] | 7.39 |
